- tested-on: mPAD4 (Mus musculus)
- Sequence (Q9Z183 whole entry): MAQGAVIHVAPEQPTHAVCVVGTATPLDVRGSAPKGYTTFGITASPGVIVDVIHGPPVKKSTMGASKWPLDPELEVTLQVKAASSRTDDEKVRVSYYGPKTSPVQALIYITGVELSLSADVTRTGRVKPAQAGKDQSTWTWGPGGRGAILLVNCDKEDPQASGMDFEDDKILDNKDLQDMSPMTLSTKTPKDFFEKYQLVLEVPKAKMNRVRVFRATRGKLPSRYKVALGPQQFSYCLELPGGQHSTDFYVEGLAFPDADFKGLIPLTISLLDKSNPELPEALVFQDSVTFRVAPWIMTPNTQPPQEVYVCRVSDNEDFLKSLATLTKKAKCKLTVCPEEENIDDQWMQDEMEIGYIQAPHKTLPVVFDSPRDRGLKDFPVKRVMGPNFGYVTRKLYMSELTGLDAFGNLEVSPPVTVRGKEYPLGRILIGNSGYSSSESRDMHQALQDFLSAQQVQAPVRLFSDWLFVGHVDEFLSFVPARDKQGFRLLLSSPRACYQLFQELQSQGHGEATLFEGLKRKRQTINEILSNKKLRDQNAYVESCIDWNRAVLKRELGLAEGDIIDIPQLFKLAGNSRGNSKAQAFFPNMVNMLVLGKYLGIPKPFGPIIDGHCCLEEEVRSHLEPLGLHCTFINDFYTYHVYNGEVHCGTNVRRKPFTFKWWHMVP
- method-description: mPAD4 RFMS PAD4 inhibition assay;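 also: grade E means pIC50 at most 4 and F means pIC50 4.0 to 5.0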
- Format: biochemical
- test-conditions: mPAD4, RFMS readout; pIC50=−log(IC50); read-out: mPAD4 RFMS pIC50 (converted)
Overview of reported IC50 across a group of compounds:

Guide cases for IC50, answers given:
compound	measured-attribute	observed-measurement
COc1cc(C(=O)N2CCC[C@@H](N)C2)cc2nc(-c3cc4ccc(C)nc4n3CC3CC3)n(C)c12 [Compound I-199]	IC50	< 1000 nM
COc1cc(C(=O)N2CC3CC(N)C2C3)cc2nc(-c3cc4cccnc4n3CC3CC3)n(C)c12 (racemic) [Compound I-99]	IC50	> 100000 nM
CCn1c(-c2nc3cc(C(=O)N4C[C@H]5CC[C@@H]4[C@@H]5N)cc(OC)c3n2C)cc2cccnc21 [Compound I-159]	IC50	< 1000 nM
COc1cc(C(=O)N2C[C@H]3CC[C@@H]2[C@@H]3N)cc2nc(-c3cc4cccnc4n3CC3CC3)n(CC3CCOC3)c12 (some centres unmarked) [Compound I-217]	IC50	< 1000 nM
COc1cc(C(=O)N2C[C@@H](N)C[C@H](F)C2)cc2nc(-c3cc4cccnc4n3CC3(C)CC3)n(C)c12 [Compound I-93]	IC50	1000 to 10000 nM

The reported IC50 of the compound Cn1c(-c2cc3cccnc3n2CC2CC2)nc2cc(C(=O)N3CC[C@H](F)[C@@H](N)C3)ccc21 [Compound I-54] was 10000 to 100000 nM

---

- tested-on: UniProt Q9Z183
- method-description: mPAD4 RFMS PAD4 inhibition assay;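 also: grade E means pIC50 at most 4 and F means pIC50 4.0 to 5.0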
- Type: biochemical
- test-conditions: mPAD4, RFMS readout; pIC50=−log(IC50); read-out: mPAD4 RFMS pIC50 (converted)
measured-attribute: IC50

Worked cases, IC50 given:
compound	observed-measurement
COc1cc(C(=O)N2C[C@H](N)CC[C@@H]2C)cc2nc(-c3cc4cccnc4n3CC3CC3)n(C)c12 [Compound I-87]	< 1000 nM
Cn1c(-c2cc3cccnc3n2CC2CC2)nc2cc(C(=O)N3CCC[C@@H](N)C3)cc(S(C)(=O)=O)c21 [Compound I-131]	10000 to 100000 nM

Sample COc1cc(C(=O)N2CCC[C@@H](N)C2)cc2nc(-c3cc4cccnc4n3[C@@H](C)C3CC3)n(C)c12 [Compound I-102] ; IC50 observed: 1000 to 10000 nM

Reported IC50 ( COc1cc(C(=O)N2CC3COCC3(CN)C2)cc2nc(-c3cc4cccnc4n3CC3CC3)n(C)c12 (racemic) [Compound I-96] ) = 10000 to 100000 nM

IC50 reported for this compound CCn1c(-c2nc3cc(C(=O)N4CCC[C@@H](N)C4)cc(F)c3n2C)cc2cccnc21 [Compound I-164] : 1000 to 10000 nM

---

- tested-on: hPAD4 (Homo sapiens)
- Sequence (Q9UM07 whole entry): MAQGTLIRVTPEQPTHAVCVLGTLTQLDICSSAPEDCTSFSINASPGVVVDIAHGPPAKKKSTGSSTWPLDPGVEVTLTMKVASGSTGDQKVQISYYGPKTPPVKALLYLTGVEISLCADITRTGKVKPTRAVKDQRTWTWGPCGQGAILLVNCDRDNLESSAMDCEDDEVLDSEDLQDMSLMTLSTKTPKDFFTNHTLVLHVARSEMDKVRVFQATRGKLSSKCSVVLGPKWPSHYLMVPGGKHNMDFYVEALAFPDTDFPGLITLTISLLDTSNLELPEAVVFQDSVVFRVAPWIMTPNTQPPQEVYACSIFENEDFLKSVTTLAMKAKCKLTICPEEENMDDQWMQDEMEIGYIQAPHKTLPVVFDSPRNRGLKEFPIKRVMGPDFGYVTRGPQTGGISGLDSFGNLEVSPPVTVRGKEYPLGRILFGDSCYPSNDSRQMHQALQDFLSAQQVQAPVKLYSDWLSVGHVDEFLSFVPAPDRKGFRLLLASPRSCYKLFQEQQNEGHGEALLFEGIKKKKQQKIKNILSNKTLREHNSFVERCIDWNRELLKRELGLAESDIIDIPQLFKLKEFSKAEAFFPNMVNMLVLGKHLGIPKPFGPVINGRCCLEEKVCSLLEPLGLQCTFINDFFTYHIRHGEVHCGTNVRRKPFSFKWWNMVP
- method-description: hPAD4 RFMS (RapidFire mass spectrometry) PAD4 inhibition assay;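 also: grade E means pIC50 at most 4 and F means pIC50 4.0 to 5.0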
- Format: biochemical
- test-conditions: hPAD4 enzyme, RFMS readout; pIC50=−log(IC50); read-out: hPAD4 RFMS pIC50 (converted)
Where a name gives a salt, the structure may show the parent alone.
measured-attribute: IC50

Solved cases below.
> print(dat)
                                   molecule  measured.attribute  observed.measurement
1  Cn1c(-c2cc3cccnc3n2CC2CC2)nc2cc(C(=O)N3CCCC4(CCCCN4)C3)ccc21 (centres unmarked) [Compound I-48]                IC50          10 to 100 µM
2  COc1cc(C(=O)N2C[C@H]3CC[C@@H]2[C@@H]3N)cc2nc(-c3cc4cccnc4n3CC3CC3)n(C[C@H]3C[C@@H](OC)C3)c12 [Compound I-236]                IC50                < 1 µM

Consider CN[C@@H]1C[C@@H](O)CN(C(=O)c2cc(OC)c3c(c2)nc(-c2cc4cccnc4n2CC2CC2)n3C)C1 (racemic) [Compound I-77, hydrochloride] . Its measured IC50 is 10 to 100 µM

GET /value?item= COc1cc(C(=O)N2C[C@H]3CC[C@@H]2[C@@H]3N)cc2nc(-c3cc4cccnc4n3CC3CC3)n(CC(F)F)c12 [Compound I-233] &field=IC50 returns < 1 µM

Record CCn1c(-c2nc3cc(C(=O)N4CCC[C@@H](N)C4)cc(F)c3n2CC)cc2cccnc21 [Compound I-151] , field IC50: 1 to 10 µM

Value of measured IC50 for the entry COc1cc(C(=O)N2CC[C@H](F)[C@@H](N)C2)cc2nc(-c3cc4cccnc4n3CC3CC3)n(C)c12 [Compound I-58] : 10 to 100 µM

Reported IC50 of COc1cc(C(=O)N2C[C@H]3C[C@H](OC)[C@@H]2[C@@H]3N)cc2nc(-c3cc4cccnc4n3CC3CC3)n(C)c12 [Compound I-167] : 1 to 10 µM

The molecule listed as COc1cc(C(=O)N2C[C@H](N)CC[C@H]2C)cc2nc(-c3cc4cccnc4n3CC3CC3)n(C)c12 [Compound I-88] has a reported IC50 of 10 to 100 µM
